Target: ETA (Homo sapiens)
Construct: purchased ICE Bioscience ICESTP™ SafetyOne44 Panel
Sequence (P25101 21-427): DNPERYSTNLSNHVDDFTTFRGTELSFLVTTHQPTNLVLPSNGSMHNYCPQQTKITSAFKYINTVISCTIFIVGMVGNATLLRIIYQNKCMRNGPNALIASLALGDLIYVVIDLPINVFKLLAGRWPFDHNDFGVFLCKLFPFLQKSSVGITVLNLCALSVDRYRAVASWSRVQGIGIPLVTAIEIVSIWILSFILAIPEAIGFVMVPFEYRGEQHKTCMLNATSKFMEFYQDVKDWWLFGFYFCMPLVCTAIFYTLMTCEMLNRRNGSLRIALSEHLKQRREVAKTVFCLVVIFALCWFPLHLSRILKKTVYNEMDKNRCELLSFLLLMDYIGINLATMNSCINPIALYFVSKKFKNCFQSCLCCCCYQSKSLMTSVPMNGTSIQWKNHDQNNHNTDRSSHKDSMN
Assay: SafetyOne44 panel: ETA
Assay type: cell-based
Conditions: ETA, antagonist mode; read-out: Antagonist Reference Compound IC50
PROPERTY: IC50
Reply with a number, then the unit it belongs to.

I would be grateful if you could share the reported IC50 for CCCNS(=O)(=O)Nc1ncnc(OCCOc2ncc(Br)cn2)c1-c1ccc(Br)cc1 [Macitentan, reference compound] . 3.29 nM

---

Target: TRPC5 (Homo sapiens, UniProt Q9UL62)
Sequence (Q9UL62 whole entry, species assumed): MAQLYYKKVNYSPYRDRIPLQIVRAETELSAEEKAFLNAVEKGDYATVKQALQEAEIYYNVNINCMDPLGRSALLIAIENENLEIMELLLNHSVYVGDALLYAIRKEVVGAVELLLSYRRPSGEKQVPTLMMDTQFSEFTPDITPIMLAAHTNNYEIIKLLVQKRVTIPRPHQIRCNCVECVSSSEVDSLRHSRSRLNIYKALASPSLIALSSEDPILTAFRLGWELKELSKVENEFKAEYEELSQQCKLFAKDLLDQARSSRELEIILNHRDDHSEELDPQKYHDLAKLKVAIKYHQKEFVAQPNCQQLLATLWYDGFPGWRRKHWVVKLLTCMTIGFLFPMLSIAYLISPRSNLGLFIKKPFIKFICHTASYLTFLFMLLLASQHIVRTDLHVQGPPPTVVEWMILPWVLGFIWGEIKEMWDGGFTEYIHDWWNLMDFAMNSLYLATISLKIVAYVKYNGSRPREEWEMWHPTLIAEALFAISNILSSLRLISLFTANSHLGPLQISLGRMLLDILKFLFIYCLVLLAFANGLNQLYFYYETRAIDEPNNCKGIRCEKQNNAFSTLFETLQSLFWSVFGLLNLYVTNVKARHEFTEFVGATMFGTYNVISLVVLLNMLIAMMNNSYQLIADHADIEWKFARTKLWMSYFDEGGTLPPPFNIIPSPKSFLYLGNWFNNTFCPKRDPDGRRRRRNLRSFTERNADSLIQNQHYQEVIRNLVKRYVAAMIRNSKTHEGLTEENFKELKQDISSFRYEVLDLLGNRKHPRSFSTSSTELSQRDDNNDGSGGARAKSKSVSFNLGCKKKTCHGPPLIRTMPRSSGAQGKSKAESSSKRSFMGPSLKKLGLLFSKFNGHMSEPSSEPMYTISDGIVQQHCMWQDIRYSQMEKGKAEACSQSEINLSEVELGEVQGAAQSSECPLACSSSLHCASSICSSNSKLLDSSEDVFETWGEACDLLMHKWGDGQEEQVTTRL
Experiment: cell-based
Settings: calcium flux, SAR
PROPERTY: fold decrease in activity (vs compound 6)

O=c1c2c3nc(n2Cc2nccs2)Oc2cccc(c2)OCCCCCCn3c(=O)n1CCCO = over 1000 fold
O=c1c2c3nc(n2Cc2ccc(Cl)cc2)Oc2cccc(c2)COCCOCCn3c(=O)n1CCCO = 100 fold
O=c1c2c3nc(n2CCC(F)(F)F)Oc2cccc(c2)OCCCCCCn3c(=O)n1CCCO = over 1000 fold

---

Biological target: TRPC5 (Homo sapiens)
Experiment: cell-based
Conditions: calcium flux, SAR
PROPERTY: fold decrease in activity (vs compound 6)

O=c1c2c3nc(n2Cc2ncco2)Oc2cccc(c2)OCCCCCCn3c(=O)n1CCCO = over 1000 fold
CCCn1c2nc3c1c(=O)n(CCCO)c(=O)n3CCCCCCOc1cccc(c1)O2 = over 1000 fold

---

Target: NET (Homo sapiens)
Construct: ICE Bioscience ICESTP SafetyOne44 Panel
Sequence (P23975 whole entry): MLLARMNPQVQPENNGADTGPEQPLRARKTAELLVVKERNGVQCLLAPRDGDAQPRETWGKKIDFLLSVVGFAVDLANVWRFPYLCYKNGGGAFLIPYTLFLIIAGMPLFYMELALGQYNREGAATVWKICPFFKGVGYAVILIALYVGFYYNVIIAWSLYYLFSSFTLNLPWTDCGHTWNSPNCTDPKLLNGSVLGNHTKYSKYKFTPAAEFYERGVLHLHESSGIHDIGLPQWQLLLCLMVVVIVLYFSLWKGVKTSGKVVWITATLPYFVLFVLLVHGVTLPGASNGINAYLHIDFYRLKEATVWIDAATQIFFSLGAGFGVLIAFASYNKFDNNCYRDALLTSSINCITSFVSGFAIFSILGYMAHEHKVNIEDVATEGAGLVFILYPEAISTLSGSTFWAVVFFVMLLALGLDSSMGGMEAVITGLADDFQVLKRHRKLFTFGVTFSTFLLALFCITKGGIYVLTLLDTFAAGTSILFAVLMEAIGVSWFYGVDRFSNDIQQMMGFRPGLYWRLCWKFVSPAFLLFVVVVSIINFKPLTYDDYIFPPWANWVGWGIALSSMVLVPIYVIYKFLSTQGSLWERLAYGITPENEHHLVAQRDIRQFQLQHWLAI
Assay: SafetyOne44 panel: NET
PROPERTY: IC50
Reply with a number, then the unit it belongs to.

I would be grateful if you could share the reported IC50 for c1ccc2cc([C@]34CNC[C@H]3C4)ccc2c1 [Centanafadine, reference compound] . 139 nM

---

Biological target: CCK1 (Homo sapiens, UniProt P32238)
Construct: purchased ICE Bioscience ICESTP™ SafetyOne44 Panel
Sequence (P32238 whole entry): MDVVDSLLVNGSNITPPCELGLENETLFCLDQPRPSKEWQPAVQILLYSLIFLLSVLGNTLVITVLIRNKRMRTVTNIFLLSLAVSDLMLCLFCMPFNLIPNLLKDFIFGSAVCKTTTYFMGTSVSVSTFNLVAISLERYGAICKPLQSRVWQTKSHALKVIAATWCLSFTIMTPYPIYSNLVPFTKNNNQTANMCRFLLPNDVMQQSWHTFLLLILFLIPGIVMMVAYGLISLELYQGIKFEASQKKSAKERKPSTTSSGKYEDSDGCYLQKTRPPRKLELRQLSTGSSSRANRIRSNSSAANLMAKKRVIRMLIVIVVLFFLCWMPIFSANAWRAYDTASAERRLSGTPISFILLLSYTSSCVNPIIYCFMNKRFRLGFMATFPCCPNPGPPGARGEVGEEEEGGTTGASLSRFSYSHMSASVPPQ
Experiment: SafetyOne44 panel: CCK1
Type: cell-based
Settings: CCK1, antagonist mode; read-out: Antagonist Reference Compound IC50
PROPERTY: IC50 (nM)
Just the number in nM, nothing appended.

I would be grateful if you could share the reported IC50 for CCCCCN(CCCOC)C(=O)C(CCC(=O)O)NC(=O)c1ccc(Cl)c(Cl)c1 (stereo not shown) [Loxiglumide, reference compound] . 353

---

Target: TRPC5 (Homo sapiens, UniProt Q9UL62)
Type: cell-based
Details: 100 nmol/L EA; read-out: IC50, TRPC5, whole-cell patch-clamp
PROPERTY: pIC50
// field semantics: pIC50 = negative decimal log of concentration (mol/L)

For the record O=c1c2c3nc(n2Cc2ccc(Cl)cc2)Oc2ccc(F)c(c2)OCCCCCCn3c(=O)n1CCCO , what value of pIC50 is listed for TRPC5 (Homo sapiens, UniProt Q9UL62)? 9.43

---

Assay: in vivo
Details: male, C57BL/6, mouse, iv, 2 mg/kg
PROPERTY: MRT (min)
Just the number in min, nothing appended.

I would be grateful if you could share the reported MRT for O=c1c2c3nc(n2Cc2ccc(Cl)cc2)Oc2ccc(F)c(c2)OCCCCCCn3c(=O)n1CCCO . 52.8

---

Experiment: in vivo
Conditions: male, C57BL/6, mouse, iv, 2 mg/kg
PROPERTY: clearance (mL/min/kg)
Just the number in mL/min/kg, nothing appended.

I would be grateful if you could share the reported clearance for O=c1c2c3nc(n2Cc2ccc(Cl)cc2)Oc2ccc(F)c(c2)OCCCCCCn3c(=O)n1CCCO . 66.8

Recorded values, source paper PMC12827894.
